- EXPERIMENTAL PROTOCOL: Test of the solubility
- Format: physicochemical
- ASSAY CONDITIONS: ratio to Comp. Ex. 1 (Na2PQQ = 1)
Counter-ions that a name gives are not always drawn.
Parameter threshold = 10. Response is T when Solubility Ratio meets or exceeds it, else F.

COMPOUND	CLASS
O=C(O)c1cc(C(=O)O)c2c(n1)C(=O)C(=O)c1cc(C(=O)O)[nH]c1-2.[Li].[Li].[Na].[Na] [Example 6, PQQ Disodium Dilithium Salt]	T
O=C([O-])c1cc(C(=O)[O-])c2c(n1)C(=O)C(=O)c1cc(C(=O)O)[nH]c1-2.[Na+].[Na+] [Comp. Ex. 1, PQQ Disodium Salt, reference compound]	F
O=C(O)c1cc(C(=O)O)c2c(n1)C(=O)C(=O)c1cc(C(=O)O)[nH]c1-2 [Comp. Ex. 2, PQQ Trisodium Salt, reference compound]	F
O=C(O)c1cc(C(=O)O)c2c(n1)C(=O)C(=O)c1cc(C(=O)O)[nH]c1-2.[Li].[Li].[Li].[Li] [Example 5, PQQ Tetralithium Salt]	T
O=C(O)c1cc(C(=O)O)c2c(n1)C(=O)C(=O)c1cc(C(=O)O)[nH]c1-2.[K].[K].[K].[K] [Example 7, PQQ tetrapotassium salt]	T
O=C(O)c1cc(C(=O)O)c2c(n1)C(=O)C(=O)c1cc(C(=O)O)[nH]c1-2 [Example 1, PQQ Tetrasodium Salt]	T

---

Below, each entry is listed alongside its reported Solubility.
- EXPERIMENTAL PROTOCOL: Test of the solubility
- Format: physicochemical
- ASSAY CONDITIONS: water, room temperature of 23° C., calculated from absorbance at 260 nm
Where a name gives a salt, the structure may show the parent alone.
ASSAY ENDPOINT: Solubility

COMPOUND	ASSAY ENDPOINT	ASSAY VALUE
O=C([O-])c1cc(C(=O)[O-])c2c(n1)C(=O)C(=O)c1cc(C(=O)O)[nH]c1-2.[Na+].[Na+] [Comp. Ex. 1, PQQ Disodium Salt, reference compound]	Solubility	7.99 mM
O=C(O)c1cc(C(=O)O)c2c(n1)C(=O)C(=O)c1cc(C(=O)O)[nH]c1-2.[Li].[Li].[Li].[Li] [Example 5, PQQ Tetralithium Salt]	Solubility	655 mM
O=C(O)c1cc(C(=O)O)c2c(n1)C(=O)C(=O)c1cc(C(=O)O)[nH]c1-2.[K].[K].[K].[K] [Example 7, PQQ tetrapotassium salt]	Solubility	84 mM
O=C(O)c1cc(C(=O)O)c2c(n1)C(=O)C(=O)c1cc(C(=O)O)[nH]c1-2.[Li].[Li].[Na].[Na] [Example 6, PQQ Disodium Dilithium Salt]	Solubility	89 mM
O=C(O)c1cc(C(=O)O)c2c(n1)C(=O)C(=O)c1cc(C(=O)O)[nH]c1-2 [Comp. Ex. 2, PQQ Trisodium Salt, reference compound]	Solubility	30.4 mM
